From: patent US20160030416A1

Experiment: Pharmacokinetics, single oral gavage, 2 formulations, Wistar and Sprague-Dawley rats
Assay type: in vivo
Details: female, Wistar, rat, plasma, po, 150 mg/kg, Formulation 1, Wistar (Female)
quantity-name: Tmax (min)
One number for each entry, in min.

Fill in Tmax for record Cc1cc(Cl)c(COc2cccc3c(-n4cc(F)cn4)cc(C)nc23)c(Cn2cccc(C#N)c2=O)n1
19.8

* * *

Assay: Pharmacokinetics, single oral gavage, 2 formulations, Wistar and Sprague-Dawley rats
Assay type: in vivo
Details: female, Wistar, rat, plasma, po, 150 mg/kg, Formulation 1, Wistar (Female)
quantity-name: AUC(0-inf) (ng·h/mL)
Answers are plain numbers, in ng·h/mL.

Fill in AUC(0-inf) for record Cc1cc(Cl)c(COc2cccc3c(-n4cc(F)cn4)cc(C)nc23)c(Cn2cccc(C#N)c2=O)n1
9060

* * *

Assay: Plasma kinetics, intravenous, CD-1 mice
Assay type: in vivo, female CD-1 mice
Settings: female, CD-1, mouse, plasma; IV 1 mg/kg, 1.0 hr; read-out: Average Concentration of HGT3711
Experimental: CFMQ (HGT3711) was administered to fasted female CD-1 mice by a single intravenous injection at 1.0 mg/kg, formulated in 100% PEG200. Blood samples were taken via cardiac puncture prior to administration and at 0.083 (5 min), 0.25 (15 min), 0.50 (30 min), 1, 2, 4, and 8 hours post dose. Plasma concentrations of CFMQ (HGT3711) were determined by LC-MS/MS and concentrations below the limit of quantitation (BLOQ=<1 ng/ml) were assigned a value of zero for pharmacokinetic analysis. […]
quantity-name: concentration at 1 hr (µg/mL)
Give bare numbers, in µg/mL.

Fill in concentration at 1 hr for record Cc1cc(Cl)c(COc2cccc3c(-n4cc(F)cn4)cc(C)nc23)c(Cn2cccc(C#N)c2=O)n1
0.0126

* * *

Biological target: human B2-bradykinin receptor (Homo sapiens, UniProt P30411)
Sequence (P30411 1-391): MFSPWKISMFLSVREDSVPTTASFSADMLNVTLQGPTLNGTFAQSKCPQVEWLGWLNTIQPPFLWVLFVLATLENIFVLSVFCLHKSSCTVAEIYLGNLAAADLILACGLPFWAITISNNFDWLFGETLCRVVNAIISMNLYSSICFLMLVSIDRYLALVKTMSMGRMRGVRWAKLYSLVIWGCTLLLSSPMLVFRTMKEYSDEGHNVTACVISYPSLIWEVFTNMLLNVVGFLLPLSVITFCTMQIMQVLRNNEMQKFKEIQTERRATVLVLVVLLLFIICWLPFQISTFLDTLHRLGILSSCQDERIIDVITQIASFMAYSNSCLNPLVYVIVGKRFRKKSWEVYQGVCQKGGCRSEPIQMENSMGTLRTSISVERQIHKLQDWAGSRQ
Experiment: [3H]bradykinin competition binding assay in HEK 293 cells
Design: expressed in transfected cells
Conditions: 2 nM [3H]bradykinin, 90-minute incubation
quantity-name: pIC50
Give bare numbers, as −log10 of the molar value.

Fill in pIC50 for record Cc1cc(Cl)c(COc2cccc3c(-n4cc(F)cn4)cc(C)nc23)c(Cn2cccc(C#N)c2=O)n1
8.48

* * *

Experiment: Bidirectional permeability in Caco-2 cells
Format: in vitro ADME, human
Conditions: human, 5 μM, apical to basolateral, 120 minutes, read-out: permeability coefficient A-to-B
quantity-name: Papp A→B at 120 min, 5 μM

Fill in Papp A→B at 120 min, 5 μM for record Cc1cc(Cl)c(COc2cccc3c(-n4cc(F)cn4)cc(C)nc23)c(Cn2cccc(C#N)c2=O)n1
34 ×10⁻⁶ cm/s
